B1: Segment polarity protein dishevelled homolog DVL-3, residues 2 to 81; numbered along this chain, Q92997 (parent)
chain: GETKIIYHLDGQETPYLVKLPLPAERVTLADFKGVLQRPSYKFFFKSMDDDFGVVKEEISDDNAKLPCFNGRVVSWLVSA

# Variants of: B1
# experimental.protocol: abundance fitness (aPCA) (normalised: wild type 0, dead -1); higher = more abundant; growth selection in yeast, the domain comes from the species named
# recorded.conditions: Homo sapiens
Recorded abundance fitness values for a group of variants are listed next.
experimental.readout: abundance fitness

>>> test_value("L20P")
-0.954
>>> test_value("S47C")
0.251
>>> test_value("E58P")
-0.95
>>> test_value("V73W")
-0.589
>>> test_value("P39A")
-0.14
>>> test_value("D51R")
0.224
>>> test_value("K42E")
-0.636
>>> test_value("P21E")
-0.293
>>> test_value("R38H")
0.001
>>> test_value("V73I")
0.147
>>> test_value("G53P")
-0.211
>>> test_value("P21N")
0.003
>>> test_value("V35P")
-0.869
>>> test_value("E25Y")
-0.501
>>> test_value("F69W")
-0.191
>>> test_value("K33L")
-0.936
>>> test_value("V78N")
-0.585
>>> test_value("F45S")
-0.856
>>> test_value("V54A")
0.005
>>> test_value("L36M")
-0.465
>>> test_value("D61W")
-0.679
>>> test_value("A80I")
-0.004
>>> test_value("V35M")
-0.25
>>> test_value("D51E")
-0.074
>>> test_value("K46Q")
0.165
>>> test_value("F32V")
-0.819
>>> test_value("R72L")
0.216
>>> test_value("L22H")
-0.617
>>> test_value("D61E")
-0.257
>>> test_value("F45A")
-0.533
>>> test_value("G71A")
-0.782
>>> test_value("G34V")
-0.371
>>> test_value("D62L")
-0.563
>>> test_value("G53V")
-0.005
>>> test_value("G71W")
-0.524
>>> test_value("K19S")
0.157
>>> test_value("L20K")
-0.666
